test: Metabolic stability assay, CD-1 mouse microsomes; format: in vitro ADME; details: both, CD-1, mouse, microsomes, 1 h, 10 µM
reported property: Metabolic Stability 60 min mouse [% remain.] (% remain.)

CN(C)CCNC(=O)[C@@H]1COCC(=O)N2C[C@@H](NC(=O)Cc3ccc4ccccc4c3)C[C@H]2COc2cccc(c2)C(=O)N1C ... 94
CCCCC(=O)N[C@@H]1C[C@H]2COc3ccc(F)cc3C(=O)N(C)[C@H](C(=O)N(C)CCN(C)C)CCC(=O)N(C)CC(=O)N2C1 ... 100
CN1CC(=O)N2C[C@@H](NC(=O)Cc3c[nH]c4ccccc34)C[C@H]2COc2ccc(F)cc2C(=O)N(C)[C@H](C(=O)NCCc2c[nH]c3ccccc23)CCC1=O ... 33
CN1CC(=O)N2C[C@H](NC(=O)CCc3ccncc3)C[C@H]2COc2ccc(cc2)C(=O)N(C)[C@H](C(=O)NCc2ccc3ccccc3c2)CCC1=O ... 69
CN1CCC[C@H](NC(=O)Cc2ccccc2)C(=O)N[C@H]2CN[C@H](COc3ccc(F)cc3C1=O)C2 ... 94

P: CN1CCC[C@H](NC(=O)Cc2cccc3ccccc23)C(=O)N2C[C@@H](NC(=O)Cc3ccc4ccccc4c3)C[C@H]2COc2cccc(c2)C1=O
Q: CC(C)CN[C@H]1C[C@H]2COc3cccc(c3)C(=O)N(C)[C@H](C(=O)NCc3ccc4ccccc4c3)COCC(=O)N2C1
R: CNC(=O)[C@H]1CCC(=O)N(C)CC(=O)N2C[C@@H](NC(=O)Cc3ccc4ccccc4c3)C[C@H]2COc2ccc(F)cc2C(=O)N1C
Task: Output the entries ranked by Metabolic Stability 60 min mouse [% remain.] from maximum down to minimum. Sort the labels as requested; that list is your answer.
Output: Q, R, P

P: CN1CCN([C@H]2CCCN(C)C(=O)c3cccc(c3)OC[C@@H]3C[C@H](O)CN3C2=O)CC1
Q: CN1CCC[C@H](NC(=O)Cc2cccc3ccccc23)C(=O)N2C[C@@H](NC(=O)Nc3cccc(N(C)C)c3)C[C@H]2COc2cccc(c2)C1=O
Task: # returns the entry with the larger Metabolic Stability 60 min mouse [% remain.]; inputs P and Q Which one? Tell me its label.
Output: P

====

assay: in vitro; type: in vitro ADME, human; details: human, plasma, 4 h, 10 µM
reported property: Plasma Stability 240 min hum [% remain.] (% remain.)

CN1CCC[C@H](NC(=O)Cc2cccc(-c3ccccc3)c2)C(=O)N2C[C@@H](NC(=O)Nc3cccc(N(C)C)c3)C[C@H]2COc2cccc(c2)C1=O ... 100
CN1CCC[C@H](NC(=O)Cc2ccccc2)C(=O)N2C[C@@H](O)C[C@H]2COc2cccc(c2)C1=O ... 91
CN(C)CCNC(=O)[C@@H]1CCC(=O)N(C)CC(=O)N2C[C@@H](NC(=O)Nc3cccc4ccccc34)C[C@H]2COc2ccc(F)cc2C(=O)N1C ... 100
CN1C(=O)c2cccc(c2)OC[C@@H]2C[C@H](N)CN2C(=O)COC[C@H]1C(=O)NCc1ccc2ccccc2c1 ... 72
CN1CC(=O)N2C[C@H](NC(=O)CN3CCCC3)C[C@H]2COc2ccc(cc2)C(=O)N(C)[C@H](C(=O)NCc2ccncc2)CCC1=O ... 92
CCN(CC)[C@H]1C[C@H]2COc3ccc(F)cc3C(=O)N(C)[C@H](C(=O)N3CCCC3)CCC(=O)N(C)CC(=O)N2C1 ... 82

====

assay: Metabolic stability assay, human microsomes; format: in vitro ADME; conditions: both, human, microsomes, 1 h, 10 µM
reported property: Metabolic Stability 60 min hum [% remain.] (% remain.)

Sample records with Metabolic Stability 60 min hum [% remain.]:
CN(C)CCNC(=O)[C@@H]1CCC(=O)N(C)CC(=O)N2C[C@@H](NCCc3cccc4ccccc34)C[C@H]2COc2ccc(F)cc2C(=O)N1C ... 13
CCCCC(=O)N[C@@H]1C[C@H]2COc3ccc(F)cc3C(=O)N(C)[C@H](C(=O)N(C)CCN(C)C)CCC(=O)N(C)CC(=O)N2C1 ... 78

1: CN1CC(=O)N2C[C@@H](NC(=O)CN3CCCC3)C[C@H]2COc2ccc(F)cc2C(=O)N(C)[C@@H](C(=O)N2CCCC2)CCC1=O
2: CN1CCC(NC(=O)OCc2ccccc2)C(=O)N2CC(NC(=O)Cc3ccc4ccccc4c3)CC2COc2cccc(c2)C1=O (stereo not shown)
3: CN(C)CCNC(=O)[C@H]1CCC(=O)N(C)CC(=O)N2CCN(C(=O)Cc3ccc4ccccc4c3)C[C@@H]2COc2ccc(F)cc2C(=O)N1C
Task: Place the items in sequence of falling Metabolic Stability 60 min hum [% remain.]. List the labels according to the requested ordering.
Output: 1, 3, 2
(1: 97 % remain., 3: 62 % remain., 2: 17 % remain.)

I: CN1CC(=O)N2C[C@@H](NC(=O)Cc3cccc4ccccc34)C[C@H]2COc2ccc(F)cc2C(=O)N(C)[C@H](C(=O)NCCNC(=N)N)CCC1=O
II: CN(C)CCNC(=O)[C@@H]1CCC(=O)N(C)CC(=O)N2C[C@@H](NC(=O)Cc3c[nH]c4ccccc34)C[C@H]2COc2ccc(F)cc2C(=O)N1C
III: CN1CCC[C@H](NS(=O)(=O)c2ccc(-c3ccccc3)cc2)C(=O)N2C[C@@H](NC(=O)Cc3ccc4ccccc4c3)C[C@H]2COc2cccc(c2)C1=O
IV: CN1CCC[C@H](N)C(=O)N2C[C@@H](OCc3ccc(-c4cccnc4)cc3)C[C@H]2COc2cccc(c2)C1=O
V: CCCCCCCCCC(=O)N[C@H]1CCCN(C)C(=O)c2cccc(c2)OC[C@@H]2C[C@H](NC(=O)Nc3cccc(N(C)C)c3)CN2C1=O
Task: Arrange these compounds by their Metabolic Stability 60 min hum [% remain.], starting with the largest number. Write out the labels following the order that was asked for.
Output: II, IV, III, I, V
(II: 74 % remain., IV: 46 % remain., III: 23 % remain., I: 11 % remain., V: 1 % remain.)

I: CN1CC(=O)N2C[C@@H](NC(=O)Cc3cccc4ccccc34)C[C@H]2COc2ccc(F)cc2C(=O)N(C)[C@H](C(=O)NCCN)CCC1=O
II: CN1CCC[C@H](N2CCN(S(C)(=O)=O)CC2)C(=O)N2C[C@@H](O)C[C@H]2COc2cccc(c2)C1=O
III: CN1CCC[C@H](NC(=O)Cc2cccc(-c3ccccc3)c2)C(=O)N2C[C@@H](NC(=O)Nc3cccc(N(C)C)c3)C[C@H]2COc2cccc(c2)C1=O
IV: CN1CCC[C@H](NC(=O)OCc2ccccc2)C(=O)N[C@@H]2C[C@@H](COc3ccc(F)cc3C1=O)N(C(=O)OC(C)(C)C)C2
V: CN1CCC[C@H](NC(=O)Cc2cccc3ccccc23)C(=O)N2C[C@@H](NC(=O)Nc3cccc(N(C)C)c3)C[C@H]2COc2cccc(c2)C1=O
Task: Write the entries in order, lowest recorded Metabolic Stability 60 min hum [% remain.] first. Please, when replying, give the labels in the order that was requested.
Output: V, III, IV, I, II
(V: 8 % remain., III: 13 % remain., IV: 37 % remain., I: 55 % remain., II: 100 % remain.)

====

assay: Metabolic stability assay, human microsomes; format: in vitro ADME; conditions: both sexes, human, microsomes
reported property: half-life at 10 µM (min)

Worked examples, 8 compounds total:
CN1CCC[C@H](NC(=O)OCc2ccccc2)C(=O)N2C[C@@H](NC(=O)Cc3ccc4ccccc4c3)C[C@H]2COc2cccc(c2)C1=O ... 15
CC(=O)N[C@H]1C[C@H]2COc3ccc(F)cc3C(=O)N(C)[C@H](C(=O)NCCc3c[nH]c4ccccc34)CCC(=O)N(C)CC(=O)N2C1 ... 32
CN1CCC[C@H](NC(=O)Cc2cccc(-c3ccccc3)c2)C(=O)N2C[C@@H](NC(=O)Nc3cccc(N(C)C)c3)C[C@H]2COc2cccc(c2)C1=O ... 16
CN1C(=O)c2cccc(c2)OC[C@@H]2C[C@H](NC(=O)CCc3ccncc3)CN2C(=O)COC[C@H]1C(=O)NCc1ccc2ccccc2c1 ... 46
CCCCCCCCCC(=O)N[C@H]1C[C@H]2COc3ccc(F)cc3C(=O)N(C)[C@@H](C(=O)NCc3ccc4ccccc4c3)CCC(=O)N(C)CC(=O)N2C1 ... 23
CN1CC(=O)N2C[C@@H](NC(=O)OC(C)(C)C)C[C@H]2COc2ccc(F)cc2C(=O)N(C)[C@H](C(=O)NCCc2c[nH]c3ccccc23)CCC1=O ... 22
CN1CC(=O)N2C[C@@H](NC(=O)Cc3c[nH]c4ccccc34)C[C@H]2COc2ccc(F)cc2C(=O)N(C)[C@H](C(=O)NCCc2c[nH]c3ccccc23)CCC1=O ... 17
CN1CC(=O)N2C[C@@H](NC(=O)Cc3cccc4ccccc34)C[C@H]2COc2ccc(F)cc2C(=O)N(C)[C@H](C(=O)NCCNC(=N)N)CCC1=O ... 21

A: CN1CCC[C@H](N)C(=O)N2C[C@@H](OCc3ccc(-c4cccnc4)cc3)C[C@H]2COc2cccc(c2)C1=O
B: CN1CCC(NC(=O)OCc2ccccc2)C(=O)N2CC(NC(=O)Cc3ccc4ccccc4c3)CC2COc2cccc(c2)C1=O (stereo not shown)
Task: For the pair A and B , which member has the lower half-life at 10 µM number? // caller expects the label of the chosen entry
Output: B
